Value source: paper PMC9482650

system-under-test: GRASP, Q7Z6J2
Sequence (Q7Z6J2 96-193): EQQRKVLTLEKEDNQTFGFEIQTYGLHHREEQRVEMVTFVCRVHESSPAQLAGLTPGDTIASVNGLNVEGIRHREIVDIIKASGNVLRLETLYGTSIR
protocol-description: holdup assay
Design: key: below the threshold = too weak to quantify, mostly under pKd 3.1 to 4
condition: plain residues with an end cap or a label only (N-terminal biotin on a linker: ado-ado)
assay-endpoint: pKd
I'd appreciate a reply containing only the number, no unit.

Example entries begin here.
1) HLSTRQGTCV [ATRNL1, Q5VV63]: 4.28
2) NSTHNLKDYV [CLDN20, P56880]: 3.47

Q: Value lookup for pKd; key = THHRKIHTRV [ZNF599, Q96NL3]
A: 3.76

Q: Same question, GSQSQVETEA [FKBP4, Q02790] this time
A: 3.59

Q: Same for KIEDVEITLV [FCHSD2, O94868]
A: 5.5

Q: Next binder: FVFESRKEIL [TBPL1, P62380]
A: 4.72
